Where do the numbers come from? From ChEMBL document CHEMBL1142456.

- experimentalDetails: Volume of distribution at steady state in female rat at 1 mg/kg, iv
- Type: ADME, organism-based
- Set-up: dose 1 mg/kg, route intravenous
- conditionDescription: in vivo, read-out: Vdss

- lineNotation: "CCN1CCN(CC/C=C/c2ccc3c(Nc4ccc(Sc5nccn5C)c(Cl)c4)c(C#N)cnc3c2)CC1"
  Vd: "5.7 L/kg"

====

- experimentalDetails: Clearance in male rat at 1 mg/kg, iv
- Assay type: ADME, organism-based
- Design: dose 1 mg/kg, route intravenous
- conditionDescription: in vivo
metric: clearance (mL/min/kg)

- lineNotation: "CCN1CCN(CC/C=C/c2ccc3c(Nc4ccc(Sc5nccn5C)c(Cl)c4)c(C#N)cnc3c2)CC1"
  endpointResult: 70.3

====

- experimentalDetails: Half life in nude mouse at 2 mg/kg, iv
- Assay type: ADME, organism-based
- Parameters: dose 2 mg/kg, route intravenous
- conditionDescription: in vivo

- lineNotation: "CCN1CCN(CC/C=C/c2ccc3c(Nc4ccc(Sc5nccn5C)c(Cl)c4)c(C#N)cnc3c2)CC1"
  half-life (min): 54

====

- experimentalDetails: AUC (infinity) in male rat at 10 mg/kg, po
- Format: ADME, organism-based
- Design: time infinity, dose 10 mg/kg, route oral
- conditionDescription: plasma

- lineNotation: "CCN1CCN(CC/C=C/c2ccc3c(Nc4ccc(Sc5nccn5C)c(Cl)c4)c(C#N)cnc3c2)CC1"
  readingUnit: "ng·h/mL"
  AUC(0-inf): 204

====

- experimentalDetails: Plasma concentration in mouse at 50 mg/kg, po after 2 hrs
- Type: ADME, organism-based
- Design: dose 50 mg/kg, route oral
Would you please tag the item 1 when its concentration at 2 h is 300 ng/mL or above, and -1 when it is below?

- lineNotation: "Cn1ccnc1Sc1ccc(Nc2c(C#N)cnc3cc(/C=C/CCN4CCOCC4)ccc23)cc1Cl"
  classAssignment: -1
- lineNotation: "CN1CCN(CC/C=C/c2ccc3c(Nc4ccc(Sc5nccn5C)c(Cl)c4)c(C#N)cnc3c2)CC1"
  classAssignment: 1
- lineNotation: "CCN1CCN(CC/C=C/c2ccc3c(Nc4ccc(Sc5nccn5C)c(Cl)c4)c(C#N)cnc3c2)CC1"
  classAssignment: 1
- lineNotation: "COc1cc2c(Nc3ccc(Sc4nccn4C)c(Cl)c3)c(C#N)cnc2cc1/C=C/CCN1CCN(C)CC1"
  classAssignment: -1
- lineNotation: "Cn1ccnc1Sc1ccc(Nc2c(C#N)cnc3cc(/C=C/CCN4CCCC4)ccc23)cc1Cl"
  classAssignment: 1

====

- experimentalDetails: Metabolic stability in CD1 rat liver microsomes
- Type: ADME, Microsome

- lineNotation: "CCN1CCN(CC/C=C/c2ccc3c(Nc4ccc(Sc5nccn5C)c(Cl)c4)c(C#N)cnc3c2)CC1"
  half-life / min: 21

====

- experimentalDetails: Plasma concentration in mouse at 50 mg/kg, po after 4 hrs
- Assay type: ADME, organism-based
- Design: dose 50 mg/kg, route oral
Would you please tag the item TRUE when its concentration at 4 h is 80 ng/mL or above, and FALSE when it is below?

- lineNotation: "Cn1ccnc1Sc1ccc(Nc2c(C#N)cnc3cc(/C=C/CN4CCCC4)ccc23)cc1Cl"
  classAssignment: "FALSE"
- lineNotation: "COc1cc2c(Nc3ccc(Sc4nccn4C)c(Cl)c3)c(C#N)cnc2cc1/C=C/CCN1CCN(C)CC1"
  classAssignment: "FALSE"
- lineNotation: "CCN1CCN(CC/C=C/c2ccc3c(Nc4ccc(Sc5nccn5C)c(Cl)c4)c(C#N)cnc3c2)CC1"
  classAssignment: "TRUE"
- lineNotation: "Cn1ccnc1Sc1ccc(Nc2c(C#N)cnc3cc(/C=C/CCN4CCOCC4)ccc23)cc1Cl"
  classAssignment: "FALSE"
- lineNotation: "CN1CCN(CC/C=C/c2ccc3c(Nc4ccc(Sc5nccn5C)c(Cl)c4)c(C#N)cnc3c2)CC1"
  classAssignment: "TRUE"

====

- experimentalDetails: Plasma concentration in mouse at 50 mg/kg, po after 1 hr
- Format: ADME, organism-based
- Parameters: dose 50 mg/kg, route oral
metric: concentration at 1 h (ng/mL)

- lineNotation: "Cn1ccnc1Sc1ccc(Nc2c(C#N)cnc3cc(/C=C/CN4CCCC4)ccc23)cc1Cl"
  readingUnit: "ng/mL"
  endpointResult: 72

====

- experimentalDetails: AUC (infinity) in female rat at 10 mg/kg, po
- Type: ADME, organism-based
- Set-up: time infinity, dose 10 mg/kg, route oral
- conditionDescription: plasma

- lineNotation: "CCN1CCN(CC/C=C/c2ccc3c(Nc4ccc(Sc5nccn5C)c(Cl)c4)c(C#N)cnc3c2)CC1"
  AUC(0-inf) [ng·h/mL]: 988

====

- experimentalDetails: Clearance in female rat at 1 mg/kg, iv
- Type: ADME, organism-based
- Design: dose 1 mg/kg, route intravenous
- conditionDescription: in vivo
metric: clearance (mL/min/kg)

- lineNotation: "CCN1CCN(CC/C=C/c2ccc3c(Nc4ccc(Sc5nccn5C)c(Cl)c4)c(C#N)cnc3c2)CC1"
  endpointResult: 35.7

====

- experimentalDetails: AUC (infinity) in nude mouse at 50 mg/kg, po
- Format: ADME, organism-based
- Parameters: time infinity, dose 50 mg/kg, route oral
- conditionDescription: plasma
metric: AUC(0-inf) (ng·h/mL)

- lineNotation: "CCN1CCN(CC/C=C/c2ccc3c(Nc4ccc(Sc5nccn5C)c(Cl)c4)c(C#N)cnc3c2)CC1"
  metric: "AUC(0-inf)"
  endpointResult: 2170

====

- experimentalDetails: Oral bioavailability in male rat at 10 mg/kg
- Format: ADME, organism-based
- conditionDescription: in vivo

- lineNotation: "CCN1CCN(CC/C=C/c2ccc3c(Nc4ccc(Sc5nccn5C)c(Cl)c4)c(C#N)cnc3c2)CC1"
  bioavailability [%]: 13

====

- experimentalDetails: Apparent permeability across PAMPA membrane
- Assay type: ADME
- conditionDescription: read-out: permeability
metric: Papp (×10⁻⁶ cm/s)

- lineNotation: "CCN1CCN(CC/C=C/c2ccc3c(Nc4ccc(Sc5nccn5C)c(Cl)c4)c(C#N)cnc3c2)CC1"
  metric: "Papp"
  endpointResult: 0.45

====

- experimentalDetails: Cmax in male rat at 10 mg/kg, po
- Format: ADME, organism-based
- Set-up: dose 10 mg/kg, route oral
- conditionDescription: in vivo

- lineNotation: "CCN1CCN(CC/C=C/c2ccc3c(Nc4ccc(Sc5nccn5C)c(Cl)c4)c(C#N)cnc3c2)CC1"
  Cmax / ng/mL: 61

====

- experimentalDetails: Clearance in nude mouse at 2 mg/kg, iv
- Assay type: ADME, organism-based
- Parameters: dose 2 mg/kg, route intravenous
- conditionDescription: in vivo

- lineNotation: "CCN1CCN(CC/C=C/c2ccc3c(Nc4ccc(Sc5nccn5C)c(Cl)c4)c(C#N)cnc3c2)CC1"
  readingUnit: "mL/min/kg"
  clearance: 66

====

- experimentalDetails: Volume of distribution at steady state in male rat at 1 mg/kg, iv
- Assay type: ADME, organism-based
- Design: dose 1 mg/kg, route intravenous
- conditionDescription: in vivo, read-out: Vdss

- lineNotation: "CCN1CCN(CC/C=C/c2ccc3c(Nc4ccc(Sc5nccn5C)c(Cl)c4)c(C#N)cnc3c2)CC1"
  readingUnit: "L/kg"
  Vd: 7.6

====

- experimentalDetails: Half life in female rat at 1 mg/kg, iv
- Assay type: ADME, organism-based
- Set-up: dose 1 mg/kg, route intravenous
- conditionDescription: in vivo

- lineNotation: "CCN1CCN(CC/C=C/c2ccc3c(Nc4ccc(Sc5nccn5C)c(Cl)c4)c(C#N)cnc3c2)CC1"
  readingUnit: "h"
  half-life: 2.5

====

- experimentalDetails: Volume of distribution at steady state in nude mouse at 2 mg/kg, iv
- Assay type: ADME, organism-based
- Design: dose 2 mg/kg, route intravenous
- conditionDescription: in vivo, read-out: Vdss
metric: Vd (L/kg)

- lineNotation: "CCN1CCN(CC/C=C/c2ccc3c(Nc4ccc(Sc5nccn5C)c(Cl)c4)c(C#N)cnc3c2)CC1"
  endpointResult: 2.7
